The reported numbers originate from the supplement of paper PMC10567573.

B1: NEK8 (parent)
chain: YTFGSNQHGQLGTNTRRGSRAPCK

- Variants of: B1
- assay-remarks: protein stability index of a GFP-peptide fusion (GPS, HEK-293T) (PSI 1-6); higher = more stable;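 note: lentivirally expressed fusions sorted by FACS into six bins by GFP to DsRed ratio, PSI derived from sequencing read proportions per bin multiplied by bin number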
- measurement-parameters: c terminus: a fixed tail appended
readout: protein stability index

biopolymer_sequence="YTFGSTQHGQLGTNTRRGSRAPCK [N6T]" meas_value=3.54
biopolymer_sequence="YTFGSNQHGQLGTNFRRGSRAPCK [T15F]" meas_value=3.56
biopolymer_sequence="YTFISNQHGQLGTNTRRGSRAPCK [G4I]" meas_value=3.72
biopolymer_sequence="MTFGSNQHGQLGTNTRRGSRAPCK [Y1M]" meas_value=4.31
biopolymer_sequence="YTFGSNQHGQLGRNTRRGSRAPCK [T13R]" meas_value=4.11
biopolymer_sequence="YTFGSNQHGTLGTNTRRGSRAPCK [Q10T]" meas_value=4.32
biopolymer_sequence="YTFGSNQLGQLGTNTRRGSRAPCK [H8L]" meas_value=3.37
biopolymer_sequence="ITFGSNQHGQLGTNTRRGSRAPCK [Y1I]" meas_value=4.34
biopolymer_sequence="YTFGSNQSGQLGTNTRRGSRAPCK [H8S]" meas_value=3.77
biopolymer_sequence="YTFGSNQHSQLGTNTRRGSRAPCK [G9S]" meas_value=4.15
biopolymer_sequence="YTFGSNQHGQLGTNTRRGSRIPCK [A21I]" meas_value=3.69
biopolymer_sequence="YTFGRNQHGQLGTNTRRGSRAPCK [S5R]" meas_value=3.96
biopolymer_sequence="YDFGSNQHGQLGTNTRRGSRAPCK [T2D]" meas_value=4.43
biopolymer_sequence="YTFGSNQHGQLGTNTRRGSRAPCE [K24E]" meas_value=3.77
biopolymer_sequence="YTFGSNQHGQLGTNTRRGSVAPCK [R20V]" meas_value=3.48
biopolymer_sequence="YTFGSHQHGQLGTNTRRGSRAPCK [N6H]" meas_value=3.75
biopolymer_sequence="YTFGSNQHGQLGTNTRRGSEAPCK [R20E]" meas_value=4.1
biopolymer_sequence="YTFGSNQHGQLGTNTRRGSRQPCK [A21Q]" meas_value=3.89
biopolymer_sequence="YTFGANQHGQLGTNTRRGSRAPCK [S5A]" meas_value=3.63
biopolymer_sequence="YTSGSNQHGQLGTNTRRGSRAPCK [F3S]" meas_value=3.2
biopolymer_sequence="YTFGSNYHGQLGTNTRRGSRAPCK [Q7Y]" meas_value=3.09
biopolymer_sequence="STFGSNQHGQLGTNTRRGSRAPCK [Y1S]" meas_value=4.89
biopolymer_sequence="YTFGSNQRGQLGTNTRRGSRAPCK [H8R]" meas_value=3.92
biopolymer_sequence="YTFGSNQHGQLCTNTRRGSRAPCK [G12C]" meas_value=3.71
biopolymer_sequence="YTFFSNQHGQLGTNTRRGSRAPCK [G4F]" meas_value=3.64
biopolymer_sequence="YTFGSNQHIQLGTNTRRGSRAPCK [G9I]" meas_value=3.05
biopolymer_sequence="YTFGSNQHGQLGGNTRRGSRAPCK [T13G]" meas_value=4.43
biopolymer_sequence="YTFKSNQHGQLGTNTRRGSRAPCK [G4K]" meas_value=3.6
biopolymer_sequence="YTFGSNQHGQLGTNTRRVSRAPCK [G18V]" meas_value=3.46
biopolymer_sequence="YTFGSNQHGQLGTNTRRFSRAPCK [G18F]" meas_value=2.85
biopolymer_sequence="YTFGSNQHGQLPTNTRRGSRAPCK [G12P]" meas_value=4.43
biopolymer_sequence="YTFGSNQHGQLGANTRRGSRAPCK [T13A]" meas_value=4.44
biopolymer_sequence="YTFGSNQHGQLGTITRRGSRAPCK [N14I]" meas_value=2.73
biopolymer_sequence="YTFGSNQHGQLGTNTRKGSRAPCK [R17K]" meas_value=3.73
biopolymer_sequence="YTFGSAQHGQLGTNTRRGSRAPCK [N6A]" meas_value=3.94
biopolymer_sequence="YTFGSNQHGQLGTNTRRGSRAPHK [C23H]" meas_value=4.25
biopolymer_sequence="YTFGSNNHGQLGTNTRRGSRAPCK [Q7N]" meas_value=4.06
biopolymer_sequence="YTFGSNQHGQLGTNTRRGMRAPCK [S19M]" meas_value=4.05
biopolymer_sequence="YTFGSNQHGQLGTNMRRGSRAPCK [T15M]" meas_value=4.09
biopolymer_sequence="YTFGSNQHGQLGTSTRRGSRAPCK [N14S]" meas_value=3.88
biopolymer_sequence="YTFGSNQHGQLNTNTRRGSRAPCK [G12N]" meas_value=4.18
biopolymer_sequence="YTFTSNQHGQLGTNTRRGSRAPCK [G4T]" meas_value=3.54
biopolymer_sequence="YTFGLNQHGQLGTNTRRGSRAPCK [S5L]" meas_value=3.62
biopolymer_sequence="YTFGPNQHGQLGTNTRRGSRAPCK [S5P]" meas_value=3.84
biopolymer_sequence="YTFDSNQHGQLGTNTRRGSRAPCK [G4D]" meas_value=4.39
biopolymer_sequence="YTFGWNQHGQLGTNTRRGSRAPCK [S5W]" meas_value=2.67
biopolymer_sequence="YTFGSNQIGQLGTNTRRGSRAPCK [H8I]" meas_value=3.48
biopolymer_sequence="YSFGSNQHGQLGTNTRRGSRAPCK [T2S]" meas_value=4.31
biopolymer_sequence="YTFGSNQHGQLGTNTRRGSRAQCK [P22Q]" meas_value=3.73
biopolymer_sequence="YTFGSNQHGQLGTNVRRGSRAPCK [T15V]" meas_value=4.17
biopolymer_sequence="YTFGHNQHGQLGTNTRRGSRAPCK [S5H]" meas_value=3.66
biopolymer_sequence="YTFGSNQVGQLGTNTRRGSRAPCK [H8V]" meas_value=4.01
biopolymer_sequence="YTFGSNQHGQLGTNTRRGSRAPCY [K24Y]" meas_value=2.63
biopolymer_sequence="YTFGSNQHGQLGTNTARGSRAPCK [R16A]" meas_value=3.81
biopolymer_sequence="YVFGSNQHGQLGTNTRRGSRAPCK [T2V]" meas_value=2.36
biopolymer_sequence="YTFGQNQHGQLGTNTRRGSRAPCK [S5Q]" meas_value=4.01
biopolymer_sequence="YTFGSNQHGQLGTNTRRSSRAPCK [G18S]" meas_value=3.43
biopolymer_sequence="YTFGSNQHGQLGTNTRRGSRAPCS [K24S]" meas_value=3.24
biopolymer_sequence="YTFGSNQHGQLGTNTRRGSRAPYK [C23Y]" meas_value=3.46
biopolymer_sequence="YTFGSNQHGQLGTNTRRGSRAFCK [P22F]" meas_value=3.66
biopolymer_sequence="YTEGSNQHGQLGTNTRRGSRAPCK [F3E]" meas_value=4.32
biopolymer_sequence="YTFGSNQHGQLGTNTRRGSMAPCK [R20M]" meas_value=3.15
biopolymer_sequence="YRFGSNQHGQLGTNTRRGSRAPCK [T2R]" meas_value=4.75
biopolymer_sequence="YTFGSNQHGQLGTNTRVGSRAPCK [R17V]" meas_value=3.66
biopolymer_sequence="YTFGSNQHGQLGTNTHRGSRAPCK [R16H]" meas_value=4.25
biopolymer_sequence="YTFGSNQHGQLGTNTRRGSRAPMK [C23M]" meas_value=3.61
biopolymer_sequence="YTFGSNQYGQLGTNTRRGSRAPCK [H8Y]" meas_value=3.36
biopolymer_sequence="YGFGSNQHGQLGTNTRRGSRAPCK [T2G]" meas_value=4.33
biopolymer_sequence="YTFGSSQHGQLGTNTRRGSRAPCK [N6S]" meas_value=3.86
biopolymer_sequence="YTFGSNQHGQLGHNTRRGSRAPCK [T13H]" meas_value=4.35
biopolymer_sequence="YTFGSNQHGQLGTNTRRGSRVPCK [A21V]" meas_value=3.84
biopolymer_sequence="YTQGSNQHGQLGTNTRRGSRAPCK [F3Q]" meas_value=3.69
